# credit: the supplement of paper PMC10127200

- System: HEPG2
- EXPERIMENTAL PROTOCOL: Euclidean distance of Cell Painting phenotypic profile (signed KS, 77 features) to DMSO centroid (dimensionless distance); 5 or 10 uM (library dependent); higher = stronger phenotypic change vs DMSO (phenoactivity)
- TEST SETTINGS: 48 h
Counter-ions that a name gives are not always drawn.
READOUT LABEL: Euclidean distance
Answers are plain numbers.

CC(=O)Oc1cc(C(C)C)c(OCCN(C)C)cc1C [Moxisylyte hydrochloride]    0.369

Batch lookup, Euclidean distance per entry.
1. CCc1cc(/C(C)=N/OCc2ccc(C3CCCCC3)c(C(F)(F)F)c2)ccc1CN1CC(C(=O)O)C1 [BAF312 (Siponimod)]
2. COc1cc([C@@H]2c3cc4c(cc3[C@@H](O[C@@H]3O[C@@H]5CO[C@@H](c6cccs6)O[C@H]5[C@H](O)[C@H]3O)[C@H]3COC(=O)[C@H]23)OCO4)cc(OC)c1O [Teniposide]

Response line:
1. 0.538
2. 3.39

====

Kindly state Euclidean distance for each of the entries shown.
- Tested on: OVCAR4
- EXPERIMENTAL PROTOCOL: Euclidean distance of Cell Painting phenotypic profile (signed KS, 77 features) to DMSO centroid (dimensionless distance); 5 or 10 uM (library dependent); higher = stronger phenotypic change vs DMSO (phenoactivity)
- TEST SETTINGS: 48 h
Structures can show the parent of a compound that is named as a salt.
Give bare numbers.

Known Euclidean distance results, listed for orientation:
Cc1ccc(NC(=O)C2(c3ccc4c(c3)OC(F)(F)O4)CC2)nc1-c1cccc(C(=O)O)c1 [VX-809 (Lumacaftor)]    1.02
O=C(COc1ccc(C(=O)c2ccccc2)cc1)NC1CCN(Cc2ccccc2)CC1 [AdipoRon]    0.793
CC(c1cc2ccccc2s1)N(O)C(N)=O (configuration not stated) [Zileuton]    1.11
C[C@@H]1CCO[C@H]2Cn3cc(C(=O)NCc4ccc(F)cc4F)c(=O)c(O)c3C(=O)N12 [Dolutegravir Sodium]    0.881
CCC(C(=O)O)c1ccc(N2Cc3ccccc3C2=O)cc1 (configuration not stated) [Indobufen]    1.31

// for each compound below, give its Euclidean distance
1. CN1C[C@@H]2C[C@H]1CN2c1cc2c(cc1F)c(=O)c(C(=O)O)cn2C1CC1 [Danofloxacin Mesylate]
2. OCC1OC(OC2OC(CO)C(O)C(O)C2O)C(O)C(O)C1O [D-(+)-Trehalose Anhydrous]
3. CCc1ccc(/C=C2/SC(=S)NC2=O)cc1

Response line:
1: 0.974; 2: 0.855; 3: 0.723

Batch request: Euclidean distance for each of the following compounds.
1. CCC(=O)Nc1cccc(Oc2nc(Nc3ccc(N4CCN(C)CC4)cc3OC)ncc2Cl)c1
2. CCCCc1nc2cc(/C=C/C(=O)NO)ccc2n1CCN(CC)CC [Pracinostat (SB939)]

Response line:
1. 1.26
2. 3.46

// input: 7 compounds below; output: Euclidean distance for each
1. CN(C)Cc1c(C(=O)NCCOc2ccc(C(=O)NO)cc2)oc2ccccc12
2. N#Cc1ccc([C@H]2CCc3cncn32)c(F)c1 [Osilodrostat (LCI699)]
3. COC(=O)/C=C/C(=O)OC [Dimethyl Fumarate]
4. CC(NCCc1ccc(O)cc1)C(O)c1ccc(O)cc1 (configuration not stated) [Ritodrine HCl]
5. CC(C)(C)Cn1c(N)nc2ccc(-c3[nH]c(C(C)(C)C)nc3-c3ccc(F)cc3)nc21
6. O=C(Oc1cc(S(=O)(=O)c2ccccc2)ccc1[N+](=O)[O-])c1ccc(Cl)cc1
7. FC(F)(c1ccc2ncccc2c1)c1nnc2ccc(-c3ccncc3)nn12

Response line:
1: 3.47; 2: 1.57; 3: 1.15; 4: 0.728; 5: 3.76; 6: 1.27; 7: 1.2

====

- Test system: 786-O
- EXPERIMENTAL PROTOCOL: Euclidean distance of Cell Painting phenotypic profile (signed KS, 77 features) to DMSO centroid (dimensionless distance); 5 or 10 uM (library dependent); higher = stronger phenotypic change vs DMSO (phenoactivity)
- TEST SETTINGS: 48 h
Structures can show the parent of a compound that is named as a salt.
READOUT LABEL: Euclidean distance
One number for each entry.

Some molecules with recorded Euclidean distance:
CCOC(=O)[C@H](CCc1ccccc1)N[C@@H](C)C(=O)N1[C@H](C(=O)O)C[C@H]2CCCC[C@@H]21    1.34
CC(C)CN(C[C@@H](O)[C@H](Cc1ccccc1)NC(=O)O[C@H]1CCOC1)S(=O)(=O)c1ccc(N)cc1    1.35

Hi, could you look up Euclidean distance for each item in my list?
1. Cc1ccsc1/C=C/C1=NCCCN1C [Morantel tartrate]
2. CONC(=O)c1ccccc1Nc1cc(Nc2cc(C)nn2C(C)C)ncc1Cl
3. CN1CC[C@H](c2c(O)cc(O)c3c(=O)cc(-c4ccccc4Cl)oc23)[C@H](O)C1 [Flavopiridol HCl]

Response line:
0.593
1.35
3.1

====

- Tested on: A549
- EXPERIMENTAL PROTOCOL: Euclidean distance of Cell Painting phenotypic profile (signed KS, 77 features) to DMSO centroid (dimensionless distance); 5 or 10 uM (library dependent); higher = stronger phenotypic change vs DMSO (phenoactivity)
- TEST SETTINGS: 48 h
Where a name gives a salt, the structure may show the parent alone.
READOUT LABEL: Euclidean distance
Give bare numbers.

Please review the entries below; each comes with its answer.
CO/N=C(\C(=O)N[C@@H]1C(=O)N2C(C(=O)[O-])=C(C[N+]3(C)CCCC3)CS[C@H]12)c1csc(N)n1 [Cefepime Dihydrochloride Monohydrate]    0.501
CC1CC(OC(=O)C(O)c2ccccc2)CC(C)(C)C1 (centres undefined) [Cyclandelate]    1.12
Cc1[nH]c(/C=C2\C(=O)Nc3ccc(S(=O)(=O)N(C)c4cccc(Cl)c4)cc32)c(C)c1C(=O)N1CCN(C)CC1    3.08
CC(=O)Nc1ccc(C(=O)Nc2ccccc2N)cc1    1.67
C/C1=C2N=C(/C=C3N=C(/C(C)=C4\[N-]C(C(CC(N)=O)C4(C)CCC(=O)NCC(C)OP(=O)([O-])OC4C(CO)OC(n5cnc6cc(C)c(C)cc65)C4O)C4(C)N=C1C(CCC(N)=O)C4(C)CC(N)=O)C(CCC(N)=O)C\3(C)C)C(CCC(N)=O)C/2(C)CC(N)=O.[CH3-].[Co+3] (centres undefined)    0.91

# per-item lookup of Euclidean distance; items listed below
1. NS(=O)(=O)c1ccccc1 [Benzenesulfonamide]
2. Cc1cnc(NC(=O)C2=C(O)c3ccccc3S(=O)(=O)N2C)s1
3. NC(CO)C(=O)NNCc1ccc(O)c(O)c1O (centres undefined) [Benserazide HCl]
4. N.N.O=C([O-])C[O-].[Pt+2]
5. CN1CCN2c3ncccc3Cc3ccccc3C2C1 (centres undefined)

Response line:
1: 0.87; 2: 0.746; 3: 0.748; 4: 2.86; 5: 0.95

====

Kindly supply the reported Euclidean distance values for the records listed here.
- System: 786-O
- EXPERIMENTAL PROTOCOL: Euclidean distance of Cell Painting phenotypic profile (signed KS, 77 features) to DMSO centroid (dimensionless distance); 5 or 10 uM (library dependent); higher = stronger phenotypic change vs DMSO (phenoactivity)
- TEST SETTINGS: 48 h
Structures can show the parent of a compound that is named as a salt.
One number for each entry.

COC(=O)[C@]12CCC(C)(C)C[C@H]1[C@H]1C(=O)C=C3[C@@]4(C)C=C(C#N)C(=O)C(C)(C)[C@@H]4CC[C@@]3(C)[C@]1(C)CC2 [Bardoxolone Methyl]    5.4
CNCCC=C1c2ccccc2CCc2ccccc21 [Nortriptyline hydrochloride]    1.69
Cc1ccc(C(=O)N(CCCN)[C@@H](c2nc3cc(Cl)ccc3c(=O)n2Cc2ccccc2)C(C)C)cc1    3.64
O=C(OCC(O)CO)c1ccccc1Nc1ccnc2cc(Cl)ccc12 (configuration not stated) [Glafenine HCl]    1.07
CC(C)(C)NCC(O)COc1cccc2c1CCC(=O)N2 (configuration not stated) [Carteolol HCl]    1.14

Batch of 7 compounds: report Euclidean distance for each.
1. Cc1nc(Nc2ncc(C(=O)Nc3c(C)cccc3Cl)s2)cc(N2CCN(CCO)CC2)n1 [Dasatinib]
2. CS(=O)(=O)N1CCN(Cc2cc3nc(-c4cccc5[nH]ncc45)nc(N4CCOCC4)c3s2)CC1
3. NS(=O)(=O)c1cc2c(cc1C(F)(F)F)NC(Cc1ccccc1)NS2(=O)=O (configuration not stated) [Bendroflumethiazide]
4. Cc1nc2n(c(=O)c1CCN1CCC(c3noc4cc(F)ccc34)CC1)CCCC2 [Risperidone]
5. O=C(NCCN1CCOCC1)Nc1nc2ccc(Sc3nnc4ccc(-c5ccc(F)cc5)nn34)cc2s1
6. CO[C@H]1C[C@@H]2CC[C@@H](C)[C@@](O)(O2)C(=O)C(=O)N2CCCC[C@H]2C(=O)O[C@H]([C@H](C)C[C@@H]2CC[C@@H](OC(=O)C(C)(CO)CO)[C@H](OC)C2)CC(=O)[C@H](C)/C=C(\C)[C@@H](O)[C@@H](OC)C(=O)[C@H](C)C[C@H](C)/C=C/C=C/C=C/1C
7. CCOc1ccc2nc(S(N)(=O)=O)sc2c1 [Ethoxzolamide]

Response line:
3.15
2.85
0.918
1.21
1.21
3.03
0.892

Quick one: give me Euclidean distance for each item below, same order please.
1. OC(CCCN1CCCCC1)(c1ccccc1)c1ccccc1 [Diphenidol HCl]
2. C[C@@H]1CN(C(=O)c2ccc(NC(=O)c3cc(O[C@H](C)c4c(Cl)ccc(F)c4Cl)c(N)nn3)cc2)C[C@H](C)N1 [Ensartinib (X-396) dihydrochloride]
3. COCC(=O)Nc1c(I)c(C(=O)NCC(O)CO)c(I)c(C(=O)N(C)CC(O)CO)c1I (configuration not stated) [Iopromide]
4. COC(=O)C1=C(C)NC(C)=C(C(=O)OC)C1c1ccccc1[N+](=O)[O-] [Nifedipine]
5. O=C(O)C(Cc1ccccc1[N+](=O)[O-])=NNc1nc(-c2ccc(Cl)c(Cl)c2)cs1 (mixture of isomers)

Response line:
[1.04, 5.01, 1.53, 1.37, 0.716]
